# Measurement target: T1, VAL1-B3 wt (C-terminal His6) (Arabidopsis thaliana, UniProt Q8W4L5 288-397)
# T1 sequence: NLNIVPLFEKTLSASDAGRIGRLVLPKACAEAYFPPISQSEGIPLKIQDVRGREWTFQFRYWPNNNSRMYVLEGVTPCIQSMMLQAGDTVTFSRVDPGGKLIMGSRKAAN
# Assay method text: EMSA
Attribute measured: Kd

Ask | I have this binder here, 12/12SP (dsDNA) DNA 1: CGGTGCATGGCT DNA 2: AGCCATGCACCG , and I need its recorded Kd.
Reply | ~3000 nM
